- procedure_summary: yeast display, Sf9 membrane polyspecificity reagent, FACS + sequencing; frameworks hold sequencing errors
endpoint_name: polyreactivity (PSR sort gate)

construct_sequence: QVQLVESGGGLVQAGGSLRLSCAASGSTFPYVMGWSRQAPGKERELVAAISQRTGSTYYADSVKGRFTSSRDNAKNTVYLQMNSLKPEDTAVYYCAKPGYLRPSRYDYWGQGTQVTVSS
endpoint_name: polyreactivity (PSR sort gate)
result: high polyreactivity
//
construct_sequence: QVQLVESGGGLVQAGGSLRLSCAASGRTFYSNAMGWYRQAPGKERELVAAISSSGGRTFYADSVKGRFTISRDNAKNTVYLQMNSLKPEDTAVYYCAAVPGYPRDSLYNYWGQGTQVTVSS
endpoint_name: polyreactivity (PSR sort gate)
result: high polyreactivity
//
construct_sequence: QVQLVESGGGLVQAGGSLRLSCAASGSTFGVYAMGWSRQAPGKERELDAAIRWSDGTTYYADSVKGRFTNSRDNAKNPVYLQMNSLKPEDTAVYYCAAVGYKRGTGRYGYWGQGTQVTVSS
endpoint_name: polyreactivity (PSR sort gate)
result: high polyreactivity

Source listed as the nanobody polyreactivity screen of Harvey et al. (2022).
